- ASSAY_METHOD_TEXT: Toxicity liver stage against HepG2, at 10uM
- Type: cell-based
- Set-up: test concentration 10 uM, cell line HepG2-A16-CD81EGFP
- APPLIED_CONDITIONS: human, HepG2-A16-CD81EGFP cells; read-out: INHIBITION
MEASUREMENT_TYPE: cytotoxicity at 10 µM (%)
Your answer should be a plain number; it is taken to be in %.

Field: example entries. Status: answers known.
CC(NC(=O)NCCn1ccnc1)c1ccc2c(c1)OCCCO2 (stereo unspecified) : -7.27
COc1ccc(C(=O)N2CCCCC2c2ccccn2)c(OC)n1 (stereo unspecified) : -0.649
CCOc1ccc(N2CCCN=C2NC(=O)c2ccccc2C)cc1 : -6.69
Cc1[nH]c2ccccc2c1-c1ccnc(N[C@@H](C)CO)n1 : -6.52
O=C1CN(c2ccc(CNC(=O)c3ccc[nH]3)cc2F)CCN1 : 1.28

Query: So what's the measured cytotoxicity at 10 µM for this one? CSCC(=O)N1C[C@H](c2ccc(C)o2)[C@@H](N)C1
Result: 6.6

----------
- ASSAY_METHOD_TEXT: Toxicity liver stage against HepG2, at 10uM
- Assay type: cell-based
- Set-up: test concentration 10 uM, cell line HepG2-A16-CD81EGFP
- APPLIED_CONDITIONS: human, HepG2-A16-CD81EGFP cells; read-out: INHIBITION
MEASUREMENT_TYPE: cytotoxicity at 10 µM (%)
Your answer should be a plain number; it is taken to be in %.

Field: example entries. Status: answers known.
O=C1N(c2ccsc2)CCC12CCCN(CC1CC1)C2 (stereo not drawn) : -79.4
COCCOc1ccc(NC(=O)C2CC(=O)N(CC3CC3)C2)cn1 (stereo not drawn) : -30.7

Query: So what's the measured cytotoxicity at 10 µM for this one? c1csc(CNc2ccccc2Cn2cncn2)c1
Result: 11.5

Query: Moving on to the next molecule: Nc1cnc(-c2cccc3ccnn23)cn1
Result: -1.7

----------
- ASSAY_METHOD_TEXT: Toxicity liver stage against HepG2, at 10uM
- Format: cell-based
- Parameters: test concentration 10 uM, cell line HepG2-A16-CD81EGFP
- APPLIED_CONDITIONS: human, HepG2-A16-CD81EGFP cells; read-out: INHIBITION
MEASUREMENT_TYPE: cytotoxicity at 10 µM (%)
Your answer should be a plain number; it is taken to be in %.

Field: example entries. Status: answers known.
Cc1nc(C2CCN(C(=O)c3ccnn3C)CC2)c2sccn12 : -10.7
Cc1nn(C)cc1-c1ccnc(N(C)Cc2cccs2)n1 : 19
Cc1ncoc1C(=O)N1C[C@H]2CCC[C@@]2(COCc2cccnc2)C1 : 4.53
CCN1CC2(CC1=O)CN(C(C)=O)CCN(S(=O)(=O)CC)C2 (configuration not stated) : -2.02
CN(C)C1COC2(CCN(C(=O)c3cccnc3)CC2)C1 (configuration not stated) : 3.53

Query: So what's the measured cytotoxicity at 10 µM for this one? Cc1nn(C)c(Cl)c1C(=O)NCc1cccnc1N1CCOCC1
Result: -132

Query: Moving on to the next molecule: Cc1occc1C(=O)N1C[C@@H](C(=O)NCc2ccco2)C[C@H]2OCC[C@H]21
Result: 1.08

Query: Moving on to the next molecule: Cc1cc(C)c2[nH]c(=O)c(CN3CCCC(O)(CO)C3)cc2c1 (configuration not stated)
Result: -2.25

Query: Moving on to the next molecule: Clc1ccc(-c2nnc(CNCCn3cccn3)o2)c(Cl)c1
Result: -4.86

Query: Moving on to the next molecule: CC(C)NC(=O)CN(C)C(=O)c1csc(Cc2ccccc2F)n1
Result: 3.24

Query: Moving on to the next molecule: COc1cccc(OCC(=O)N2CCCSCC2CN2CCOCC2)c1 (configuration not stated)
Result: 4.01

Query: Moving on to the next molecule: CC(C)n1nc(Cn2cccc2)c2c1CN(C1CCOCC1)C2
Result: 7.55
